target: D(2) dopamine receptor (Homo sapiens); assay: Displacement of [3H]spiperone from human dopamine D2 receptor
Sequence (P14416 whole entry): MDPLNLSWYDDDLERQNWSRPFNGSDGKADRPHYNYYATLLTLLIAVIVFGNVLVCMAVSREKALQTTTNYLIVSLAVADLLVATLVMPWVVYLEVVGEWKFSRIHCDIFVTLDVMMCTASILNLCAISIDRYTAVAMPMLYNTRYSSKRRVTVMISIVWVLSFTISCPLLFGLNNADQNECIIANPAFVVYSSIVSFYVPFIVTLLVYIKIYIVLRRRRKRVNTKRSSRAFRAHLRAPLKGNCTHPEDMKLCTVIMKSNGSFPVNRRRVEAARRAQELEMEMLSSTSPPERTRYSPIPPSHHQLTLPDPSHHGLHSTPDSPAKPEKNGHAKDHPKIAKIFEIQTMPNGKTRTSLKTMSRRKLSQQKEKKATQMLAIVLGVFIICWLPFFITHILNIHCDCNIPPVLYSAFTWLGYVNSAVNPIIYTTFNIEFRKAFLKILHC
pKi: −log10 of the molar value.
Quick rule for you: pKi at 6 or higher means t, lower means f.

Solved cases (4 shown):
chemical_smiles=Clc1ccc(N2CCN(Cc3cc4ccccn4n3)CC2)cc1 group_label=f
chemical_smiles=Clc1cccc(N2CCN(Cc3cccnc3)CC2)c1Cl group_label=t
chemical_smiles=CCOc1ccccc1N1CCN(Cc2csc3ccccc23)CC1 group_label=t
chemical_smiles=CCOc1ccccc1N1CCN(Cc2cccs2)CC1 group_label=t

Prompt line: Record Clc1cccc(N2CCN(Cc3cccc4ccccc34)CC2)c1Cl ; criterion: pKi no lower than 6. Met?
Response line: t

Prompt line: Record CCOc1ccccc1N1CCN(Cc2cccc3ccccc23)CC1 ; criterion: pKi no lower than 6. Met?
Response line: t
